- assay_method_text: self-splicing fitness, log relative to wild type (ln ratio); higher = more splicing; Tetrahymena group I intron in knt gene, E. coli kanamycin selection, DiMSum; sequences stand for … in CUCUCU…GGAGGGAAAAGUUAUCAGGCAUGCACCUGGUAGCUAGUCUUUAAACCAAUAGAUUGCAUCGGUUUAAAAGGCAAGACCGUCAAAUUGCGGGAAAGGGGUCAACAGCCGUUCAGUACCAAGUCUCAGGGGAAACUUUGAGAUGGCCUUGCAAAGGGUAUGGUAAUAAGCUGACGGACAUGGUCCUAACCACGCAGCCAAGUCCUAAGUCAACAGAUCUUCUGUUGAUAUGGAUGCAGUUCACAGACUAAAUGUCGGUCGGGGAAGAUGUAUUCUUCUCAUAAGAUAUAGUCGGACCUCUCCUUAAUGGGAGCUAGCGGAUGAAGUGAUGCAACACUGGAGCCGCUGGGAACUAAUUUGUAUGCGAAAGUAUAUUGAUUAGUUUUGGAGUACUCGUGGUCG;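 further: selection with 25 µg/mL kanamycin versus none on LB agar overnight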
- measurement_parameters: 30 °C
Lab note: class by self-splicing fitness (ln), see 1 = under -3, 2 = from -3 up to -2, 3 = -2 and over

Solved cases below.
{"record_sequence": "GACUAGCAAUAUUACGUUUU", "class": 2}
{"record_sequence": "CAUUAGCAAUAUUACGUUUC", "class": 2}
{"record_sequence": "CUUGAGCAAUAUUACGAUGC", "class": 1}
{"record_sequence": "ACGGAGCAAUAUUACGGGGU", "class": 1}
{"record_sequence": "GCGUAGCAAUAUUACGAAGU", "class": 2}

// bin(item) where item = CGAUAGCAAUAUUACGGCUG 3

// bin(item) where item = AACUAGCAAUAUUACGCGCG 3

// bin(item) where item = ACUGAGCAAUAUUACGGACC 2
